Reference for the values: the supplement of paper PMC10065799

# system: EPHB1 (UniProt P54762)
# Sequence (P54762 whole entry, looked up): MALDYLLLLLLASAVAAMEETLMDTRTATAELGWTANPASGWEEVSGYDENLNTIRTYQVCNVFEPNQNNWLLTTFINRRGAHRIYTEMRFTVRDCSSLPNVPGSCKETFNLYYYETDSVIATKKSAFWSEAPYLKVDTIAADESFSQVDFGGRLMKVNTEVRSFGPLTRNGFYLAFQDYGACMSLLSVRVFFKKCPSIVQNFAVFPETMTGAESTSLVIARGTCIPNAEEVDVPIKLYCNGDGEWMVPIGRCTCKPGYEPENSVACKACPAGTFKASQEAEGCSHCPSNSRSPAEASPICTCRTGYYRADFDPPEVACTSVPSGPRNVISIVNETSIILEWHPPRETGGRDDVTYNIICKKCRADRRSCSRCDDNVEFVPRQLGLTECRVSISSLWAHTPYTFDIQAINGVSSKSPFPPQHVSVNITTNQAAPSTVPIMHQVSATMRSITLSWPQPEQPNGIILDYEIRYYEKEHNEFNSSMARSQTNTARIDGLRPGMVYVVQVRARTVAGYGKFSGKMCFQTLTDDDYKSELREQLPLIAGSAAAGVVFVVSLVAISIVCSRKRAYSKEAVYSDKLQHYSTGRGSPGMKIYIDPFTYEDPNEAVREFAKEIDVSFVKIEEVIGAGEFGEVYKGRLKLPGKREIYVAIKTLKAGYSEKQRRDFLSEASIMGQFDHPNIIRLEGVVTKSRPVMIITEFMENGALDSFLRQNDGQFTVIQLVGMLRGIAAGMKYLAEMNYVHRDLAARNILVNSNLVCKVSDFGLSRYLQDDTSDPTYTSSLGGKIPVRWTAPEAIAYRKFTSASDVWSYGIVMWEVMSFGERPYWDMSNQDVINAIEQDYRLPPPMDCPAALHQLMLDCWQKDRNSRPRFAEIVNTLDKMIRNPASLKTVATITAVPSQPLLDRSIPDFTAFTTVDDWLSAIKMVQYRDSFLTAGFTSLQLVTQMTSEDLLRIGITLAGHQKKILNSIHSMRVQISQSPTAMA
# assay.method.text: phosphorylation enrichment, bacterial display (enrichment ratio); higher = better substrate or ligand; peptides without Tyr show the background;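 note: 11-residue human phosphosite peptides and single-mutation variants displayed on the E. coli surface, counted by deep sequencing, each peptide's frequency after selection divided by its frequency in the unselected input library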;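 note: frequency after pTyr selection over input frequency; kinase dosed for 20-30% of maximal phosphorylation in three min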
Please use met whenever phosphorylation enrichment is not below 0.6, and not met whenever it is.

Worked cases, answers included:
Query block: Could you please find out whether LYNQDYPIHSV [GATM_Y227] has phosphorylation enrichment that meets 0.6 or exceeds it?
Result block: met

Query block: Hello, I need to know if SVVVPYQPPEV [TP53_Y220_E221Q] has measured phosphorylation enrichment not below 0.6. Thanks!
Result block: met

Query block: Could you tell me if the measured phosphorylation enrichment of FAKSVYWDNTL [NUP107_Y296_E298D_YF] reaches 0.6 or more?
Result block: met

Query block: Record KQMEQYMSFHK [HCN1_Y417_V414M] ; criterion: phosphorylation enrichment no lower than 0.6. Met?
Result block: not met

Query block: Has MARDISRASYY [ALK_Y1278_Y1278S] a recorded phosphorylation enrichment greater than or equal to 0.6?
Result block: not met

Query block: Check the entry HIAKVYRRDNP [HARS1_Y156] : does phosphorylation enrichment equal or exceed 0.6?
Result block: not met

Query block: Quick check, phosphorylation enrichment >= 0.6? YSGIYYKPESL [L2HGDH_Y103_H98Y]
Result block: met

Query block: Kindly determine if phosphorylation enrichment recorded for IDAICYYRMEN [NPHS2_Y194] is above or exactly 0.6.
Result block: met

***
Query block: # bool: phosphorylation enrichment of RLNCIYFKDQT [RS1_Y165_W163C_YF] >= 0.6
Result block: met

Query block: Check the entry NNFGNYNNQSS [HNRNPA1_Y318_D314N] : does phosphorylation enrichment equal or exceed 0.6?
Result block: not met

Query block: Dear colleague, could you confirm whether SRASYYRKGGC [ALK_Y1283_Y1278S] has phosphorylation enrichment at or above 0.6?
Result block: not met

Query block: Is reported phosphorylation enrichment greater than or equal to 0.6 here: ERCAQYKKDGA [ALDOA_Y138]
Result block: not met

Query block: API: above_or_equal(metric=phosphorylation enrichment, cutoff=0.6) for item VEKEKYVSFIS [JMJD1C_Y596_M591V_YF]
Result block: not met

Query block: Tell me whether phosphorylation enrichment is at least 0.6 here: LRGEDCGFSVD [PRKCI_Y430_Y430C]
Result block: met

Query block: Does phosphorylation enrichment meet or surpass 0.6 for ILGRYYETSSI [PAX2_Y73_G76S] ?
Result block: not met

Query block: Does the sequence ESMLRYEVYGG [STOX1_Y607] have recorded phosphorylation enrichment that is 0.6 or more?
Result block: met

Query block: Evaluate TDLAFYLVREG [ASL_Y376_K380E_YF] : phosphorylation enrichment at minimum 0.6?
Result block: met

Query block: Decide: is the reported value of phosphorylation enrichment for KATKGYLDDPT [G6PD_Y322_E317K] equal to or greater than 0.6?
Result block: not met

Query block: Reported phosphorylation enrichment reaches at least 0.6 for VNFGAYINDFN [GLB1_Y488_K493N_YF] ?
Result block: met

Query block: In plain terms: is recorded phosphorylation enrichment at least 0.6 for GIFSGYDDAWD [POLR1C_Y36_N32I_YF] ?
Result block: not met

Query block: Evaluate NVPILYTASQA [CTNNA1_Y222] : phosphorylation enrichment at minimum 0.6?
Result block: not met

Query block: Tell me whether phosphorylation enrichment is at least 0.6 here: DPEAAYTTRGG [EPHA3_Y779]
Result block: not met

Query block: Reported phosphorylation enrichment reaches at least 0.6 for SLGSPYEQPPR [PDLIM4_Y137_G138E] ?
Result block: not met

Query block: Record PDDPNYSLVDD [PSTPIP2_Y323] ; criterion: phosphorylation enrichment no lower than 0.6. Met?
Result block: met

Query block: // inclusive: phosphorylation enrichment at least 0.6? input: LKFAIYFEARE [LAMA2_Y1258_YF]
Result block: met

* * *

This section presents sequences with their documented phosphorylation enrichment values.
# system: Fyn (UniProt P06241)
# Sequence (P06241 whole entry, looked up): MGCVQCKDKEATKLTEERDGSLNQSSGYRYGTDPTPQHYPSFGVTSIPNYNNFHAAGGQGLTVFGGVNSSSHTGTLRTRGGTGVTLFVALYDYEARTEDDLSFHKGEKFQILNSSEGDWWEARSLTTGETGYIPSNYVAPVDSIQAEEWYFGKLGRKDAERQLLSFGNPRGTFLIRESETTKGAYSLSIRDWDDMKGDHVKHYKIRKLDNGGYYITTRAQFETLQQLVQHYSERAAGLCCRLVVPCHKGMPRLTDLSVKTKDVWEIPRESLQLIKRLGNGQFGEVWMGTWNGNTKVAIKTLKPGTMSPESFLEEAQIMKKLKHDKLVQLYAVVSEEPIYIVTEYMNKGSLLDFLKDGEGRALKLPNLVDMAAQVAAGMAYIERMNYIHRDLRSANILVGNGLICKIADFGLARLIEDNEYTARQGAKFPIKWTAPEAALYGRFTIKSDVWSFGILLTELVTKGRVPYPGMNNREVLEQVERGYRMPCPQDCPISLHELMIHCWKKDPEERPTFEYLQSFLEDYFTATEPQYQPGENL
# assay.method.text: phosphorylation enrichment, bacterial display (enrichment ratio); higher = better substrate or ligand; peptides without Tyr show the background
// no unit, no text: just the number

# annotated cases, reported phosphorylation enrichment shown
Value of measured phosphorylation enrichment for the entry GRQGIYKENER [GPR143_Y231_T232K] : 0.371

Per the record, RGFRQYAFDGK [HLA-A_Y140_D140Y_YF] has phosphorylation enrichment of 0.546

The measured phosphorylation enrichment associated with NGRQCYSCRGN [PLAUR_Y217_K220R] reads 0.299

Item: TQPSPYAVYRF [RPGRIP1_Y823] | phosphorylation enrichment: 11.5

The recorded phosphorylation enrichment for entry LIFTNYEVGKD [GSTP1_Y112_A114V_YF] equals 1.18

phosphorylation enrichment measured on EFQLPYFNTVP [BMPR1A_Y457_M460T_YF] = 0.454

---
Entry PPTFRYERGSR [INPPL1_Y663_YF] , phosphorylation enrichment reported as 0.671

Noted for VFFDLYGGEKF [PTPN11_Y66_D61V_YF] : its phosphorylation enrichment reads 1.42

Sure, the documented phosphorylation enrichment for SETDDYAEIIV [PTK2_Y397_D402V] is 0.519

Summary for this sequence, ASELGYQFQAI [UROD_Y133_V134Q] : phosphorylation enrichment is 0.407

Summary for this sequence, ESMLRYEVYGG [STOX1_Y607] : phosphorylation enrichment is 0.666

GET /value?item= VMVCAYLLHRG [PTEN_Y138_I135V] &field=phosphorylation enrichment returns 0.478

response.value for REDVFYTSKLW [AKR1C2_Y81_I79V] (field: phosphorylation enrichment) = 0.89

Per the records, this sequence ( NFDRIYIFHLR [MYOF_Y1137_V1136I_YF] ) has phosphorylation enrichment equal to 0.605

Lab note: measured phosphorylation enrichment of TDRNLYSKNLV [CFAP58_Y501_S496T] was 0.465

According to the records, this sequence KGPGEYVNIEF [IRS1_Y896_S892G] displays phosphorylation enrichment of 0.58

// phosphorylation enrichment lookup, sequence = EVTLTYATGIK [NFKB1_Y485_T489I] , result: 0.477

The sequence listed as KRAIGYYSATS [FAM120A_Y327] has a reported phosphorylation enrichment of 0.456

* * *

# system: Fes (UniProt P07332)
# Sequence (P07332 whole entry, looked up): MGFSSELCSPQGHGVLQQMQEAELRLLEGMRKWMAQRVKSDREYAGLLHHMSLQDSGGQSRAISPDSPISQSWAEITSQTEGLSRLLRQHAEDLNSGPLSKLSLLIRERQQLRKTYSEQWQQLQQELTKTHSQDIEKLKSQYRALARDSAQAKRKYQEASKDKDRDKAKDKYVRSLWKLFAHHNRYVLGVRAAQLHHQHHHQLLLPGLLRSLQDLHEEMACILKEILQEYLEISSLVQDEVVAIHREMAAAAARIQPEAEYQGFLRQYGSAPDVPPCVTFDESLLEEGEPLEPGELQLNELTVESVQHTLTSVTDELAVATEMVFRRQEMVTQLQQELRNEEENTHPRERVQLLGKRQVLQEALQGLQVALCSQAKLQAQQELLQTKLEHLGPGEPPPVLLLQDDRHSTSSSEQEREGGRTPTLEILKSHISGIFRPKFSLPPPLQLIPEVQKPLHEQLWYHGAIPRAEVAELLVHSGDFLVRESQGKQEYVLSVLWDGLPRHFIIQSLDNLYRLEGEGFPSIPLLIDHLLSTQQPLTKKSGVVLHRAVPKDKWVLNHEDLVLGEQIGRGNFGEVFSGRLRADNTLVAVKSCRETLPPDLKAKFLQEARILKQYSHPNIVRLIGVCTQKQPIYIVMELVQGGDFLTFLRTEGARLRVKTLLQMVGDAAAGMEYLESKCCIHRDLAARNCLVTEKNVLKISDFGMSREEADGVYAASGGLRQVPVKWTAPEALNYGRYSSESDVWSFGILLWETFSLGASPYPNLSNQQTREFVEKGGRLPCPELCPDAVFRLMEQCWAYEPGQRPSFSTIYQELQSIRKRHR
# assay.method.text: phosphorylation enrichment, bacterial display (enrichment ratio); higher = better substrate or ligand; peptides without Tyr show the background
Parameter threshold = 1. Response is true when phosphorylation enrichment meets or exceeds it, else false.

Study these solved cases before continuing.
Query block: Item FGSSSYGGAGG [RPA2_Y14_YF] with phosphorylation enrichment of 1 or above?
Result block: false

Query block: Determine whether measured phosphorylation enrichment meets or exceeds 1 for LNPLIYTLKNA [OR4C46_Y285]
Result block: true

Query block: Please indicate if the recorded phosphorylation enrichment for GLGVTYEQALA [MAP2_Y996] meets or exceeds 1.
Result block: false

Query block: Decide: phosphorylation enrichment of EKSREYHRLYE [PIK3R1_Y463_D464H] >= 1?
Result block: false

Query block: Does phosphorylation enrichment meet or surpass 1 for QFLMMYVWSAS [ABCD1_Y337_K336M] ?
Result block: true

Next:
Query block: Reported phosphorylation enrichment reaches at least 1 for NGRQCYSCRGN [PLAUR_Y217_K220R] ?
Result block: false

Query block: Tell me whether phosphorylation enrichment is at least 1 here: AVISVYDLVVV [PSEN1_Y256_A260V]
Result block: true

* * *

# system: MERTK (UniProt Q12866)
# Sequence (Q12866 whole entry, looked up): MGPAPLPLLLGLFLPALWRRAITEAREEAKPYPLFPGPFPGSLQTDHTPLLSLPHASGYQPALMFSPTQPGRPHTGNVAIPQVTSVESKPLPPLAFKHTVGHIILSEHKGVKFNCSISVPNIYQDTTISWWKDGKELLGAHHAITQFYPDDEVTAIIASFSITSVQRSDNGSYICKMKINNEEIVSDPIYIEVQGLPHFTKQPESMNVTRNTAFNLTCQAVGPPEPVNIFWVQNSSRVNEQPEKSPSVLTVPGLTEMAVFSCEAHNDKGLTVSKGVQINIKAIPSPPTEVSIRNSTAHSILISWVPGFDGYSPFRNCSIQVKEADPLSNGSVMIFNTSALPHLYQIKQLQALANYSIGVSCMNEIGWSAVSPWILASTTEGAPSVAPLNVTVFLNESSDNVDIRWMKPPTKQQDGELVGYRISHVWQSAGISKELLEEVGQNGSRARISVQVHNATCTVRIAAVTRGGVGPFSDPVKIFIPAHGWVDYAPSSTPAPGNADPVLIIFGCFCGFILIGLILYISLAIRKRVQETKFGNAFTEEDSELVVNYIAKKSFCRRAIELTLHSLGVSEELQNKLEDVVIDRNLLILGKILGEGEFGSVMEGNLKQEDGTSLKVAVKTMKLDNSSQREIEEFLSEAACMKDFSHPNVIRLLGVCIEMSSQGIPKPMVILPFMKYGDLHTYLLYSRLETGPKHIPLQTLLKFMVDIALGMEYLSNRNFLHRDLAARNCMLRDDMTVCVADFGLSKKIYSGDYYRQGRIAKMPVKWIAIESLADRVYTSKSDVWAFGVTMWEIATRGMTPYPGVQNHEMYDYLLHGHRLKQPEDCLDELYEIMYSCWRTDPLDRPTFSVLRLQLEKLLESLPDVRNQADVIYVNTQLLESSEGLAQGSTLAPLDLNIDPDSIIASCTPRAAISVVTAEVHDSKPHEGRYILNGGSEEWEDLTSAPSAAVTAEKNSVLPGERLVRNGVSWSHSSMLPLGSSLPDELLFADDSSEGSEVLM
# assay.method.text: phosphorylation enrichment, bacterial display (enrichment ratio); higher = better substrate or ligand; peptides without Tyr show the background
readout.type: phosphorylation enrichment
Give a plain numeric answer without units written out.

Record summary for YIILIYAMKKK [SLCO1B1_Y645] : reported phosphorylation enrichment = 0.416

Kindly note the recorded phosphorylation enrichment for TKDTFHKQPMF [GBA_Y451_Y451H] , which is 0.403

In plain terms, QGFDTYFGFLL [ARSB_Y165_R160Q_YF] has a documented phosphorylation enrichment of 6.29

Please find the next sequence below.
Record LIDSSYLTPTA [GREB1L_Y1063_R1066P] , field phosphorylation enrichment: 0.511

* * *

Reported phosphorylation enrichment values are given for each entry in this list.
# system: FGFR1 (UniProt P11362)
# Sequence (P11362 whole entry, looked up): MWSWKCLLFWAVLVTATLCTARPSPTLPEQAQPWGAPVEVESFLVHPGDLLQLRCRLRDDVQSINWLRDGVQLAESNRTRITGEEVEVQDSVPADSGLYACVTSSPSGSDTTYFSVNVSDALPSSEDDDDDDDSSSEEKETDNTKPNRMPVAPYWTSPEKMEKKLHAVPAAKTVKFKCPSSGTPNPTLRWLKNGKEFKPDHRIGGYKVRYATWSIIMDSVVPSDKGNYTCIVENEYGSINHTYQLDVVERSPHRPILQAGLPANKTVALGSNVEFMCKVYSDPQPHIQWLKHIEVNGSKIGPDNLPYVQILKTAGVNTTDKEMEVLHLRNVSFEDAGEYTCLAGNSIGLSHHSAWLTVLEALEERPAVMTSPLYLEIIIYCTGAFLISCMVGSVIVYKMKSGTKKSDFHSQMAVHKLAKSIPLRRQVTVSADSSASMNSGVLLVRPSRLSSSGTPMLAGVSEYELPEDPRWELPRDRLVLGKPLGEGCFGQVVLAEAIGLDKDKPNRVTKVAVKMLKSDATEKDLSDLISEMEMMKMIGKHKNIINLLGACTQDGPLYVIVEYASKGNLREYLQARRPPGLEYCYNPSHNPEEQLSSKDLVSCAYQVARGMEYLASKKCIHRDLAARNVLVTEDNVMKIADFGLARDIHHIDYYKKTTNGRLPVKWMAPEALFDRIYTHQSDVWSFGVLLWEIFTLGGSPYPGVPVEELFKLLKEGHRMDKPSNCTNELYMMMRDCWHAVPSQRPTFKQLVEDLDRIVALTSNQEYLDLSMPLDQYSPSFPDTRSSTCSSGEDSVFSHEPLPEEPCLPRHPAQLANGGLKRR
# assay.method.text: phosphorylation enrichment, bacterial display (enrichment ratio); higher = better substrate or ligand; peptides without Tyr show the background
Format: numeric value only, no unit, no commentary.

Study these solved cases before continuing.
Reported phosphorylation enrichment of LIGTPYWMAPE [PAK5_Y608_V604I] : 4.64

Entry LNLKDYNLVGG [GNAQ_Y356_E355D] , phosphorylation enrichment reported as 0.523

Recorded result, SVTCPYSPALN [TP53_Y126_T125P] , phosphorylation enrichment: 0.505

What the record says about LARDMHDKEYY [MET_Y1230_Y1230H] : phosphorylation enrichment is 0.46

Looking up HEKKAYSFCGT [RPS6KA3_Y226] , I found its phosphorylation enrichment recorded as 1.51

Reported phosphorylation enrichment ( VIKDKYPQARY [APTX_Y209_K211Q] ) = 0.358

Next:
For this sequence ( CSTIHYNFMCN [TP53_Y234_T230S_YF] ), measured phosphorylation enrichment is 0.458

Notebook: KANEYYPVVLI [ADAMTS18_Y765] , phosphorylation enrichment read as 11.2

phosphorylation enrichment reading for QFQEKYKQMEQ [HCN4_Y531_V534M_YF] : 0.654

Data point: QDEHGYISRCF [HSPB1_Y133] ; phosphorylation enrichment = 0.555

Reported phosphorylation enrichment for TKDTFYKQPMF [GBA_Y451] was 0.389

Value of measured phosphorylation enrichment for the entry KLQKYYRKNPD [EHHADH_Y683_Q685K] : 0.311

get_value(item= KTKLGYSPLHQ [ANK1_Y735] , readout=phosphorylation enrichment) returns 0.31

Consider PVVKLYATEGR [RP1_Y199_D202E] . Its measured phosphorylation enrichment is 0.496

The value of phosphorylation enrichment measured for the sequence TSEASYYKSLN [NGEF_Y288] turned out to be 0.516

Entry FSAPNYCFRCG [PPP2CA_Y265_YF] — recorded phosphorylation enrichment = 0.474

Notebook: ASTDFYKRGDF [PDHA1_Y243_YF] , phosphorylation enrichment read as 0.413

Measured phosphorylation enrichment, VTPVMYTYDEY [COL10A1_Y623_G618V] : 0.637

Just so you know, measured phosphorylation enrichment for GNEEAYGSSHI [FAM171B_Y522_R524S] came out at 0.48
